tested on: CD4+ T-cells and dendritic cells; experiment: I-MUNE assay: CD4+ T-cell proliferation to 15-mer peptide sets presented by dendritic cells; type: cell-based, human; details: Table 3
Reported property: Background % (%)
Value expressed in %; do not type the unit.

The molecule identified as sTNFR1: soluble tumor necrosis factor receptor 1 (protein, UniProt P19438 30-211, looked up, extracellular domain) extracellular domain: LVPHLGDREKRDSVCPQGKYIHPQNNSICCTKCHKGTYLYNDCPGPGQDTDCRECESGSFTASENHLRHCLSCSKCRKEMGQVEISSCTVDRDTVCGCRKNQYRHYWSENLFQCFNCSLCLNGTVHLSCQEKQNTVCTCHAGFFLRENECVSCSNCKKSLECTKLCLPQIENVKGTEDSGTT registered its Background % at 4.2
